Data origin: the nanobody polyreactivity screen of Harvey et al. (2022)

- PROTOCOL_NOTES: yeast display, Sf9 membrane polyspecificity reagent, FACS + sequencing; frameworks hold sequencing errors

>  <MONOMER_SEQUENCE>
QVQLVESGGGLVQAGGSLRLSCAASGSIFVRNVMGWYRQAPGKERELVAGISWNGGSTFYADSVKGRFTISRDNAKNTVYLQMNSLKPEDTAVDYCATPYGRHGWFYLYDYWGQGTQVTVSS

>  <polyreactivity (PSR sort gate)>
low polyreactivity

$$$$
>  <MONOMER_SEQUENCE>
QFQLVESGGGLVQAGGSLRLSCAASGRIFYSYAMGWYRQAPGKERELVAAISRSGTSTFYADSLKGRFTISRDNAKNTVYLQMNSLKPEDTAVYYCNAVISPYVIRSEYWGQGTQVTVSS

>  <polyreactivity (PSR sort gate)>
low polyreactivity

$$$$
>  <MONOMER_SEQUENCE>
QVQLVESGGGLVQAGGSLRLSCAASGFTFSHYPMGWYRQAPGKERELVASISRRCGTTYYADSVKGRFTISRDNAKNTVYLQMNSLKPEDTAVYYCAVDLYIYYREYDYWGQGTQVTVSS

>  <polyreactivity (PSR sort gate)>
high polyreactivity

$$$$
>  <MONOMER_SEQUENCE>
QVQLVESGGGLVQAGGSLRLSCAASGITFIAYTMGWYRQAPGKERELVAGISRNGGRTYYADSVKGRFTISRDNAKNTVYLQMNSLKPEDTAVYYCNKVVSTYSSIKYDYWGQGTQVTVSS

>  <polyreactivity (PSR sort gate)>
high polyreactivity

$$$$
>  <MONOMER_SEQUENCE>
QVQLVESGGGVVQAGGSLRLSSAASGIIFKRYAMGWYRQAPGKEREFVAAISRSGVRTYYADSVKGRFTISRDNAKNTVFLQMNSLNPEDTAVYYCAAEFANYRDTGESVYWFYYWGQGTQVTVSS

>  <polyreactivity (PSR sort gate)>
high polyreactivity

$$$$
>  <MONOMER_SEQUENCE>
QVQLVESGGGLVQAGGSLRLSCAASGFTFLSYTMGWYRQAPGKERELVASITASGTRTYYADSVKGRFTISRDNAKNTVYLQMNRLKPEDTSVYYCAARRSGSGSHDYGYWGQGTQVTVSS

>  <polyreactivity (PSR sort gate)>
low polyreactivity

$$$$
>  <MONOMER_SEQUENCE>
QVQLVESGGGLVQAGGSLRLICAASGSIFIHNAMGWYRPAPGKERELVAGITTGGSTYYADSVKGRFTISRDNAKNTVYLQMNSLKPEDTAVYYCAVKRPVALTRGNWVTEARDYWGQGTQVTVSS

>  <polyreactivity (PSR sort gate)>
low polyreactivity

$$$$
>  <MONOMER_SEQUENCE>
QVQLVESGGGLVLTGGSLRLSCAASGSILGTYAMGWYRQAPGKERELVARISRGGSTNYADSVKGRFTISRDNAKNTVYLQMNSLKPEDTAVYYCAKRLYLPESWRYYYWGQGTQVTVSS

>  <polyreactivity (PSR sort gate)>
high polyreactivity

$$$$
>  <MONOMER_SEQUENCE>
QVQLVESRGGLVQEVGSLRLSCAASGRIFYRYYMGWYRQAPGKERELVASITRSGITHYADSVKGRFTISRDNATNTVYLQMNSLKPEDTAVYYCAVDLLRRGFPTVVTTYDYWGQGTQVTVSS

>  <polyreactivity (PSR sort gate)>
high polyreactivity

$$$$
>  <MONOMER_SEQUENCE>
QVQLVESGGGLVQARGSLRLSCAASGRTFFNNAMGWYRQAPGKERELVAGISVTTGSTYYADSVKGRFTISRDNAKNTVYLQMNSLKPEDTAVYYCAARRKQYYAAYRYYYWGQGTQVTVSS

>  <polyreactivity (PSR sort gate)>
high polyreactivity

$$$$
>  <MONOMER_SEQUENCE>
QVHLVESGGGLVQAGGSLRLSCAASGIIISSYAMGWYRQAPGKERELVAAITWGGTRTNYADSVKGRFTISRDNAKNTVYLQMNSLKPEDTAVYYCAADKYLYGRLTRNFHYYYWGQGTQVTVSS

>  <polyreactivity (PSR sort gate)>
low polyreactivity

$$$$
